molecular target: T1, recombinant human NKG2C/CD94 heterodimer (extracellular domains) (human, UniProt P26717 94-231; Q13241 32-179); assay: SPR (IBIS MX96), mAb captured on anti-human IgG Fc, ECD heterodimer injected, 1:1 fit
T1 construct: extracellular domain; also called HuNKG2C/huCD94; NKG2C/CD94 ECDs
T1 sequence (P26717 94-231, chain 1 of 2): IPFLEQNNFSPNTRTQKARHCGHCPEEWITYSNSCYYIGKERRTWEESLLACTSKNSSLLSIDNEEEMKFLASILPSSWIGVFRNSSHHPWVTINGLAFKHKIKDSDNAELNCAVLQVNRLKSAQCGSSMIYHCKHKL
T1 sequence (Q13241 32-179, chain 2 of 2): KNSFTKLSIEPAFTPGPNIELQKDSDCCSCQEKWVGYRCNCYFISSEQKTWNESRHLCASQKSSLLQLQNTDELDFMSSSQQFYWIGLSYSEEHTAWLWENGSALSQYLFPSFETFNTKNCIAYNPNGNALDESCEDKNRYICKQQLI
observable: koff (s⁻¹)
Give your result in s⁻¹ as a bare value.

// worked examples, koff included
antibody 23566 (antibody, human IgG1, kappa, L234A L235A, V domains shown, Fully human IgG1-LALA (L234A/L235A), kappa; also called mAb 23566) VH: EVQLLESGGDLVQPGGSLRLSCAASGFTFDNYAMHWVRQAPGKGLEWVSTITNSGGTTYYADSVKGRFTLSRDNSKNTLYLQMNSLRAEDTAVYYCAKAHYYARGYFDFWGQGTLVTVSS VL: DIQMTQTPSSVSASVGDRVTITCRASQGISSWLAWYQQKPGKAPKLLIYAASSLQSGVPSRFSGSGSGTDFTLTISSLQPEDFATYYCQQANSFPYTFGQGTKLEIKR: 0.00083
antibody 23686 (antibody, human IgG1, kappa, L234A L235A, V domains shown, Fully human IgG1-LALA (L234A/L235A), kappa) VH: EVQLVESGGGLVKPGGSLRLSCAASGFTFSSYSMNWVRQAPGKGLEWVSSISSSSSYIYYADSVKGRFTISRDNAKNSLYLQMNSLRAEDTAVYYCARDEWGLLGFDSWGQGTLVTVSS VL: EIVLTQSPATLSLSPGERATLSCRASQSISNYLAWYQQKPGQAPRLLIYDASNRATGIPARFSGSGSGTDFTLTISSLEPEDFAVYYCQQRTDWPPWTFGQGTKVEIKR: 0.0026
antibody 23765 (antibody, human IgG1, kappa, L234A L235A, V domains shown, Fully human IgG1-LALA (L234A/L235A), kappa) VH: EVQLVESGGGLVKPGGSLRLSCAASGFTFSCCRMNWVRQAPGKGLEWVSSISSSSSYIYYADSVKGRFTISRDNAKNSLYLQMNSLRAEDTAVYYCARDGWNDVFDYWGQGTLVTVSS VL: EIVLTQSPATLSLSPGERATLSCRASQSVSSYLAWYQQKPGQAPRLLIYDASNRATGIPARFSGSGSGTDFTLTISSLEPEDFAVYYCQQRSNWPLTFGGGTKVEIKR: 0.00156

[in] I would be grateful if you could share the reported koff for antibody 23925 (antibody, human IgG1, kappa, L234A L235A, V domains shown, Fully human IgG1-LALA (L234A/L235A), kappa) VH: EVQLVESGGGLVQPGGSLRLSCAASGFTFSSYAMNWVRQAPGKGLEWVSTISNSGGTTYYADSVKGRFTISRDNSKDTLYLQMNSLRAEDTAVYYCAKAHYYARGYFDYWGQGTLVTVSS VL: DIQMTQSPSSVSASVGDRVTITCRASQGISSWLAWYQQKSGKAPKLLIYAASSLQIGVPSRFSGSGSGTDFTLTISSLQPEDFATYYCQQANSFPYTFGQGTKLEIKR .
[out] 0.0006
